biological target: P. haemolytica A1 glycoprotease (Mannheimia haemolytica); assay: biochemical
Sequence (P36175 whole entry): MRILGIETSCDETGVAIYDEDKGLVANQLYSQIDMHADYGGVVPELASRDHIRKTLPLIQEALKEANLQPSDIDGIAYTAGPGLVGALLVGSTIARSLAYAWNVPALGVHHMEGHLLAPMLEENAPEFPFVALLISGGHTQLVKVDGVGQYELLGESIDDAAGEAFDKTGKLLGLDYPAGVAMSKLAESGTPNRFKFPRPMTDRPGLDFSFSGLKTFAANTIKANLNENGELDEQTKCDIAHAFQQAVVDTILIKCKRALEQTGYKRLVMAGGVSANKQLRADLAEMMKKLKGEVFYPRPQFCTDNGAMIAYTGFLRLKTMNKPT
ASSAY_READOUT: Inhibition of glycoprotease by conventional protease inhibitors

                                   molecule         result
0  O=C(O)c1cc[c]([Hg][Cl])cc1 [p-chloromercuribenzoate]  No inhibition
1  Cc1ccc(S(=O)(=O)NC(Cc2ccccc2)C(=O)CCl)cc1 (stereo not drawn) [tosylphenylalanyl chloromethylketone]  No inhibition
2  O=S(=O)(F)Cc1ccccc1 [phenylmethanesulfonyl-fluoride]  No inhibition
3  Cc1ccc(S(=O)(=O)NC(CCCCN)C(=O)CCl)cc1 (stereo not drawn) [tosyl-lysl chloromethylketone]  No inhibition
4       CCN1C(=O)C=CC1=O [N-ethylmaleimide]  No inhibition
5  O=C(O)c1cc[c]([Hg+])cc1.[OH-] [p-hydroxymercuribenzoate]  No inhibition
